Provenance of the data: the Human Domainome abundance scans (Beltran et al. 2025)

B1: Myocardin-related transcription factor A, residues 341 to 383; numbered along this chain, Q969V6 (parent)
chain: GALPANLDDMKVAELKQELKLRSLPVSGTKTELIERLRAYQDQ

Variants of: B1
Assay: abundance fitness (aPCA) (normalised: wild type 0, dead -1); higher = more abundant; growth selection in yeast, the domain comes from the species named
Conditions: Homo sapiens

>  <Polymer sequence>
GALPANLDDMKVAELKQELKLRSLPVSGTKTELIPRLRAYQDQ [E35P]

>  <abundance fitness>
-0.505

$$$$
>  <Polymer sequence>
GALPANLDDMKVAELKQELKLRSLPVSGTKTELIERLRAYQPQ [D42P]

>  <abundance fitness>
0.059

$$$$
>  <Polymer sequence>
GALPANLDDMKVAELKQELKLRSLPVSWTKTELIERLRAYQDQ [G28W]

>  <abundance fitness>
-1.03

$$$$
>  <Polymer sequence>
GALPANLDDMKVAELKQELKLRSWPVSGTKTELIERLRAYQDQ [L24W]

>  <abundance fitness>
-0.751

$$$$
>  <Polymer sequence>
GALPANLDDMKVAELKQELKLWSLPVSGTKTELIERLRAYQDQ [R22W]

>  <abundance fitness>
-0.572

$$$$
>  <Polymer sequence>
GALPANLDDMKVAELKQELKLRSLPVSGTFTELIERLRAYQDQ [K30F]

>  <abundance fitness>
-0.463

$$$$
>  <Polymer sequence>
GALPANLDDMKVAELKQELKLRSLPVSGTKTELIERLRAFQDQ [Y40F]

>  <abundance fitness>
0.12

$$$$
>  <Polymer sequence>
GALPANLDDMKVAELKQELKLRSLRVSGTKTELIERLRAYQDQ [P25R]

>  <abundance fitness>
-0.304

$$$$
>  <Polymer sequence>
GALPANLDDMKVAELKQELKLRSLPHSGTKTELIERLRAYQDQ [V26H]

>  <abundance fitness>
-0.265

$$$$
>  <Polymer sequence>
GALPANLDDMKVAELKQELKLRSLPVSGTKHELIERLRAYQDQ [T31H]

>  <abundance fitness>
-0.129

$$$$
>  <Polymer sequence>
GALPANLDDMKVAELKQELKLRSLPVSKTKTELIERLRAYQDQ [G28K]

>  <abundance fitness>
-0.862

$$$$
